Test system: S. aureus MSSA476
Construct: MSSA476
Parameters: species or system S. aureus MSSA476 (TSB) or V. cholerae SAD30 (LB); 384-well bacterial growth screen at 25 uM, OD600 relative to DMSO control
experimental_context: relative growth, OD600, TSB; 25 µM; inhibitor
The whole screen tested about 3,200 compounds, of which about 75 (2%) showed an effect of 50% or more. What follows is part of a selection rich in strong results, with near analogues and random picks from the rest.
measurement_label: % of control remaining (%)

O=C(CCl)NC(Cc1cccc(O)c1)c1ccccc1 (centres unmarked)    100.157
CN(c1ccc(C(=O)CCl)cc1)S(C)(=O)=O    -0.3125
CC(Cl)C(=O)NCc1nn(-c2ccccc2)c2c1CCC2 (centres unmarked)    91.9937
Cc1cc(C(=O)CCl)c(F)cc1F    143.438
C=CC(=O)NCc1cc(Cl)cc(S(C)(=O)=O)c1    97.5185
C=CC(=O)NCc1ccc(C(=O)N2CCCOC(C)(C)C2)cc1    118.764
C=CC(=O)NC1CCN(c2nnnn2C)CC1    85.677
CC(Cl)C(=O)NC(C)c1ccns1 (centres unmarked)    84.3415
Cl.O=C(CCl)c1ccncc1    111.875
CC(Cl)C(=O)N1CCCC(NS(=O)(=O)c2cccc(F)c2)C1 (centres unmarked)    102.355
O=C(CCl)c1cc2c3c(c1)CC(=O)N3CCC2    130.938
N#CC(=Cc1cnc2ccc(C#N)cn12)C(=O)Nc1ccc(F)cc1    103.67
C=CC(=O)Nc1cc(-c2ccco2)nn1C(C)(C)C    129.407
CCOc1ccccc1NC(=O)C(C#N)=Cc1c(F)cccc1F    69.3776
O=C(CCl)N1N=C(c2cccc(F)c2)CC1c1cccs1 (centres unmarked)    121.582
Cl.O=C(CCl)NC1CCN(Cc2ccccc2)CC1    109.654
CC(C)N(c1ccccc1)c1ccc(NC(=O)CCl)cc1    116.78
O=C(CCl)NCC(=O)Nc1ccc(F)c(F)c1    109.004
CC(Cl)C(=O)N(C)C1CCN(c2ccccn2)CC1 (centres unmarked)    95.6098
CC(Cl)C(=O)NC(c1ccc(F)cc1)c1cnn(C)c1 (centres unmarked)    93.2496
O=C(CCl)N1CCCSc2ccccc21    116.627
O=C(CCl)NC1CCS(=O)(=O)c2ccc(F)cc21 (centres unmarked)    94.1915
CC(=O)N(C)Cc1ccc(C(=O)CCl)cc1    111.875
